The reported numbers originate from patent US8153795B2.

In this section, each of the molecules is paired with its reported inhibition at 10 µM.
# tested system: 5-HT transporter (Rattus norvegicus)
# Construct: from tissue; host or cells: rat brain synaptosomes (P2 fraction) from medulla and pons
# method description: 5-HT uptake inhibition in rat brain synaptosomes (medulla and pons), [3H]-5-HT
# Type: biochemical
Note: unit % is implicit; provide only the numeric part.

COc1cc(C)c(CS(=O)(=O)N2CCC3(CC2)CN(Cc2cc(C)cc(C)c2)C(=O)O3)c(C)c1C [Example 114]; 73

Query: inhibition at 10 µM; subject: CC(NC(=O)N1CCC2(CC1)CN(Cc1ccccc1C(F)(F)F)C(=O)O2)c1cccc2ccccc12 (stereo not shown) [Example 54] 75

Endpoint output: inhibition at 10 µM of COc1ccc([N+](=O)[O-])cc1CN1CC2(CCN(C(=O)NC(C)c3cccc4ccccc34)CC2)OC1=O (stereo not shown) [Example 63] . Value? 84

Please report the recorded inhibition at 10 µM for Cc1ccc(CN2CC3(CCN(Cc4ccc5ccccc5c4Br)CC3)OC2=O)cc1 [Example 90] . 77

###

# tested system: 5-HT transporter (Rattus norvegicus)
# Construct: from tissue; host or cells: rat brain synaptosomes (P2 fraction) from medulla and pons
# method description: 5-HT uptake inhibition in rat brain synaptosomes (medulla and pons), [3H]-5-HT
# Type: biochemical
value type: inhibition at 10 µM (%)
All answers are understood in %, so give the number only.

Tell me the measured inhibition at 10 µM of N#Cc1cccc(CN2CC3(CCN(S(=O)(=O)Cc4cccc(Br)c4)CC3)OC2=O)c1 , please. 69

###

# tested system: 5-HT transporter (Rattus norvegicus, UniProt P31652)
# Construct: from tissue; host or cells: rat brain synaptosomes (P2 fraction) from medulla and pons
# Sequence (P31652 whole entry): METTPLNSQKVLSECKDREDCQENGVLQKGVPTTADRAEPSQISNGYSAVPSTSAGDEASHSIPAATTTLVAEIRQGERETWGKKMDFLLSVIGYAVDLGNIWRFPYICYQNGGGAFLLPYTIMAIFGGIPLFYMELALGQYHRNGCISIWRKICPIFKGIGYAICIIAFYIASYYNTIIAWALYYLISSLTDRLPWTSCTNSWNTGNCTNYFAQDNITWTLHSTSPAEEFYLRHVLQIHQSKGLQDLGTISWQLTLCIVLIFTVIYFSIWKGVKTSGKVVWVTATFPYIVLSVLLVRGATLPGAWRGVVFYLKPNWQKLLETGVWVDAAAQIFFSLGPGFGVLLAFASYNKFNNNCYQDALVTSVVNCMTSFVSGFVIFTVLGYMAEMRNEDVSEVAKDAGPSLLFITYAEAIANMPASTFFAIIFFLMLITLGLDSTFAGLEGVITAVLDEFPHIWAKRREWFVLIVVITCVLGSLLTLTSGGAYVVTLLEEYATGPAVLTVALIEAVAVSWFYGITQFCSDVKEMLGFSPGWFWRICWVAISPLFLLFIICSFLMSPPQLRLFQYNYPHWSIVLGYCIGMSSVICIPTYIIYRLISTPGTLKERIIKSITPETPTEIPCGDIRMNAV
# method description: 5-HT uptake inhibition in rat brain synaptosomes (medulla and pons), [3H]-5-HT
# Type: biochemical
value type: inhibition at 10 µM (%)
Quick reminder: number only, in %, skip the unit.

Looking for the measured inhibition at 10 µM of Cc1ccc(CS(=O)(=O)NC(Cc2ccccc2)C(=O)N2CCC3(CC2)CN(Cc2cccc(C#N)c2)C(=O)O3)cc1 (stereo not shown) , can you help? 64

inhibition at 10 µM for O=C1OC2(CCN(C(=S)NCc3ccccc3)CC2)CN1Cc1ccc(C(F)(F)F)cc1 ? 69

Fill in: inhibition at 10 µM of O=C1OC2(CCN(C(=O)c3ccc([N+](=O)[O-])cc3)CC2)CN1Cc1cccc(Br)c1 is ___ 81

Recorded inhibition at 10 µM of Cc1cc(C)cc(CN2CC3(CCN(C(=O)c4cccc(Cl)c4)CC3)OC2=O)c1 , please. 64

Find the recorded inhibition at 10 µM belonging to CC(NC(=O)N1CCC2(CC1)CN(Cc1ccc(C(F)(F)F)cc1)C(=O)O2)c1cccc2ccccc12 (stereo not shown) and report it. 43

Endpoint output: inhibition at 10 µM of O=C(NCc1ccc(Cl)c(Cl)c1)N1CCC2(CC1)CN(Cc1cccc(Br)c1)C(=O)O2 . Value? 60

May I ask what inhibition at 10 µM has been recorded for COc1cccc(CN2CC3(CCN(C(=O)c4ccc(OC)cc4OC)CC3)OC2=O)c1 ? 66

Look up inhibition at 10 µM: N#Cc1cccc(NC(=O)N2CCC3(CC2)CN(Cc2ccccc2)C(=O)O3)c1 59

Request the reported inhibition at 10 µM associated with COc1cccc(NC(=O)N2CCC3(CC2)CN(Cc2ccccc2-c2ccccc2)C(=O)O3)c1 57

Need inhibition at 10 µM, item O=C1OC2(CCN(C(=S)Nc3cc(Cl)ccc3Cl)CC2)CN1Cc1cccc(Br)c1 60

Request the reported inhibition at 10 µM associated with O=C(CN1CCC2(CC1)CN(Cc1ccc(SC(F)(F)F)cc1)C(=O)O2)Nc1csc(C(F)(F)F)c1-c1ccccc1 90

Report inhibition at 10 µM for N#Cc1ccc(CN2CC3(CCN(Cc4cccc([N+](=O)[O-])c4)CC3)OC2=O)cc1 please. 63

Need inhibition at 10 µM, item COc1cccc(NC(=O)N2CCC3(CC2)CN(Cc2ccccc2C(F)(F)F)C(=O)O3)c1 43

###

# tested system: NA transporter (Rattus norvegicus)
# Construct: from tissue; host or cells: rat brain synaptosomes (P2 fraction) from hypothalamus
# Sequence (Q63380 1-617): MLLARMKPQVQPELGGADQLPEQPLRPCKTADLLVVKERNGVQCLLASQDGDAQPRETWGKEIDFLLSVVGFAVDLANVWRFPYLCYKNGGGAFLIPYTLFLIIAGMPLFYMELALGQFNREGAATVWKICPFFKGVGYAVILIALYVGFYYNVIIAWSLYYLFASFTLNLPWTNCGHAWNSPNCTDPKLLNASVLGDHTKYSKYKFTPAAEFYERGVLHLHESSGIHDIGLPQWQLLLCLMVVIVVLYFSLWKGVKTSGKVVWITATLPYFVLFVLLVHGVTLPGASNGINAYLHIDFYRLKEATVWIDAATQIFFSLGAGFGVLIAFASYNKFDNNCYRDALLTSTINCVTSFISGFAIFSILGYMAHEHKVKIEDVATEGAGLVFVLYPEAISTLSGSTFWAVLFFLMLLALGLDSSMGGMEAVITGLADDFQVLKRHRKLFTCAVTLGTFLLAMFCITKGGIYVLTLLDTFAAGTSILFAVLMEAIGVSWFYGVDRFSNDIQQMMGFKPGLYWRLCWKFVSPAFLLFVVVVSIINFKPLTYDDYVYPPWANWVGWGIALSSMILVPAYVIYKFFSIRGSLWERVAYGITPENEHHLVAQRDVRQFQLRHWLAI
# method description: noradrenalin uptake inhibition in rat brain synaptosomes (hypothalamus), [3H]-NA
# Format: biochemical
value type: inhibition at 10 µM

Study these solved cases before continuing.
C=CCNC(=S)N1CCC2(CC1)CN(Cc1ccc3ccccc3c1)C(=O)O2; 78%
CCOc1ccc(NC(=O)N2CCC3(CC2)CN(Cc2ccccc2F)C(=O)O3)cc1; 58%
O=C1OC2(CCN(C(=O)c3ccc([N+](=O)[O-])cc3)CC2)CN1Cc1cccc(Br)c1; 78%
O=C(Nc1cccc(F)c1)N1CCC2(CC1)CN(Cc1ccccc1)C(=O)O2; 58%
O=C(Nc1ccc(Cl)c(C(F)(F)F)c1)N1CCC2(CC1)CN(Cc1ccccc1)C(=O)O2; 47%
O=C1OC2(CCN(C(=O)c3ccc(-c4ccccc4)cc3)CC2)CN1Cc1cccc(Br)c1; 73%

Turning now to a further compound:
Sample O=C1OC2(CCN(C(=S)Nc3ccccc3)CC2)CN1Cc1ccccc1-c1ccccc1 — what was its inhibition at 10 µM? 55%

###

# tested system: 5-HT transporter (Rattus norvegicus)
# Construct: from tissue; host or cells: rat brain synaptosomes (P2 fraction) from medulla and pons
# method description: 5-HT uptake inhibition in rat brain synaptosomes (medulla and pons), [3H]-5-HT
# Type: biochemical
# Protocol: a) Method for Determining Noradrenalin and 5-HT Uptake Inhibition: […] The particular uptake is measured in a 96-well microtitre plate. […] The incubation time is 7.5 minutes for [^3H]-NA and 5 minutes for [^3H]-5-HT. […] After sealing with a top Seal® (Packard) and establishing an equilibrium (around 5 hours), radioactivity is determined in a “Trilux 1450 Microbeta” (Wallac). […]
// label = MET if inhibition at 10 µM is not less than 60%, otherwise NOT MET

Evaluate CCC(CC)C(=O)N1CCC2(CC1)CN(Cc1cccc(C#N)c1)C(=O)O2 [Example 134] : inhibition at 10 µM at minimum 60%? MET

Quick check: does CCSc1ncccc1C(=O)N1CCC2(CC1)CN(Cc1cccc(Br)c1)C(=O)O2 [Example 121] have inhibition at 10 µM greater than or equal to 60%? MET

For this compound, is measured inhibition at 10 µM 60% or higher? Cc1cc(C)cc(CN2CC3(CCN(C(=O)c4ccccc4Cl)CC3)OC2=O)c1 [Example 108] MET

Identify whether the reported inhibition at 10 µM of the following compound is 60% or greater: Cc1csc(NC(=O)CN2CCC3(CC2)CN(Cc2ccc(F)c(F)c2)C(=O)O3)c1C#N [Example 80] NOT MET

# bool: inhibition at 10 µM of COc1ccc(Cl)cc1NC(=O)N1CCC2(CC1)CN(Cc1ccc(C#N)cc1)C(=O)O2 [Example 58] >= 60% NOT MET

Is it the case that O=C(NCc1ccc(F)cc1)N1CCC2(CC1)CN(Cc1ccc(F)c(F)c1)C(=O)O2 [Example 28] has inhibition at 10 µM reaching or exceeding 60%? NOT MET

Is inhibition at 10 µM at least 60%? Consider O=C(Nc1cc(F)ccc1F)N1CCC2(CC1)CN(Cc1cccc(Br)c1)C(=O)O2 [Example 29] MET

Exam item: decide whether the reported inhibition at 10 µM for C=CCNC(=S)N1CCC2(CC1)CN(Cc1ccc3ccccc3c1)C(=O)O2 [Example 10] is at least 60%. NOT MET

Confirm if inhibition at 10 µM reported for the compound COc1cccc(CC(=O)N2CCC3(CC2)CN(Cc2cc([N+](=O)[O-])ccc2OC)C(=O)O3)c1 [Example 145] is 60% or above. MET

Is it the case that COc1ccc([N+](=O)[O-])cc1CN1CC2(CCN(C(=O)Nc3cc(F)ccc3F)CC2)OC1=O [Example 26] has inhibition at 10 µM reaching or exceeding 60%? MET

###

# tested system: NA transporter (Rattus norvegicus)
# Construct: from tissue; host or cells: rat brain synaptosomes (P2 fraction) from hypothalamus
# method description: noradrenalin uptake inhibition in rat brain synaptosomes (hypothalamus), [3H]-NA
# Type: biochemical
# inhibition at 10 µM per record follows
Kindly answer with a numeric value in %, unit omitted.

Below, each entry is followed by its recorded inhibition at 10 µM result.
O=C(NCc1ccc(F)cc1)N1CCC2(CC1)CN(Cc1ccc(F)c(F)c1)C(=O)O2; 53
COc1ccc(-c2noc(CN3CCC4(CC3)CN(Cc3ccc(F)c(F)c3)C(=O)O4)n2)cc1; 64
N#Cc1cccc(NC(=O)N2CCC3(CC2)CN(Cc2ccccc2)C(=O)O3)c1; 93
COc1cccc(NC(=O)N2CCC3(CC2)CN(Cc2ccccc2-c2ccccc2)C(=O)O3)c1; 67
Cc1ccccc1NC(=S)N1CCC2(CC1)CN(Cc1ccccc1)C(=O)O2; 50

Can you share its inhibition at 10 µM? I mean this compound: COc1ccc([N+](=O)[O-])cc1CN1CC2(CCN(C(=S)NCC3CCCO3)CC2)OC1=O (centres unmarked) 45

Need inhibition at 10 µM of N#Cc1ccc(CN2CC3(CCN(Cc4cccc([N+](=O)[O-])c4)CC3)OC2=O)cc1 , thanks. 57

I'd like to know its inhibition at 10 µM. The compound in question is COCCNC(=S)N1CCC2(CC1)CN(Cc1cccc(Br)c1)C(=O)O2 70
